FYI, the data here is from ChEMBL document CHEMBL1157877.

# Test system: Neuron
# measurement.protocol: Neuroprotective effect against H202-induced Sprague-Dawley rat neuron injury assessed as viable cells by annexin V-propidium iodide staining by flow cytometry (reference value: 93.66%+/-2.19%)
# Assay type: functional
reported.endpoint: Activity (%)
Supply the numeric figure in %, leaving out any unit text.

What measured Activity goes with CCCOc1ccc(C(C)(O)/C=C/C2=C(C)CCCC2(C)C)cc1 (configuration not stated) ?
29

----------
# Test system: Neuron
# measurement.protocol: Neuroprotective effect against H202-induced Sprague-Dawley rat neuron injury assessed as apoptic cells by annexin V-propidium iodide staining by flow cytometry
# Assay type: functional
# Set-up: concentration or dose not given beside the values
Collected Activity values appear next to each entry.
Please respond with the number in % and leave the unit unwritten.

Worked cases, Activity given:
- CC1=CCCC(C)(C)C1/C=C/C(C)(O)c1ccccc1 (stereo unspecified): 62.9
- CC1=CCCC(C)(C)C1/C=C/C(C)(O)c1ccc(C(F)(F)F)cc1 (stereo unspecified): 72.6
- CC1=CCCC(C)(C)C1/C=C/C(C)(O)c1ccsc1 (stereo unspecified): 50.9
- CC1=CCCC(C)(C)C1/C=C/C(C)(O)c1cc(C)ccc1C (stereo unspecified): 55.1
- CC1=CCCC(C)(C)C1/C=C/C(C)(O)c1ccc(C(C)(C)C)cc1 (stereo unspecified): 62.1

With those in mind, consider the next compound.
I'm curious: which Activity was measured for COc1ccc(C(C)(O)/C=C/C2C(C)=CCCC2(C)C)cc1OC (stereo unspecified) tested on Neuron?
57.36
